// data source = paper PMC4366275

target: PDZ1–3 (PDZ123) domains of PSD-95 (Rattus norvegicus, UniProt P31016)
Sequence (P31016 61-393): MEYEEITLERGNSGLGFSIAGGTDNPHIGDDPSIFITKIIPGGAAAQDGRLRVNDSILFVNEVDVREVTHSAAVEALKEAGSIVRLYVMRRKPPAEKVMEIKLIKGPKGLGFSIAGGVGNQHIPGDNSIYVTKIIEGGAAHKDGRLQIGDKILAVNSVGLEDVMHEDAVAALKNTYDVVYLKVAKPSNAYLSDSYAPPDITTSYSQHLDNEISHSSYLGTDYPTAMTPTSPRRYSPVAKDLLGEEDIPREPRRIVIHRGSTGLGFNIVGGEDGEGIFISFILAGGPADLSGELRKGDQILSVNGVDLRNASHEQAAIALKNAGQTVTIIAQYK

{"molecule": "FC(F)OC(Cl)C(F)(F)F (stereo not shown) [isoflurane]", "Kd": "~3 mM"}
